Origin of measurements: the pKa sets of Baltruschat and Czodrowski (2020)

Reported pKa values are given for each entry in this list.

[
  {
    "molecule": "CN1CC[C@H](N(C)C(=O)N2CC(c3cc(F)ccc3F)=C[C@@]2(CO)c2ccccc2)[C@H](F)C1",
    "pKa": 7.6
  },
  {
    "molecule": "O=C(NCc1ccccc1)C1=CC2c3ccccc3C1c1ccccc12",
    "pKa": -2.01
  },
  {
    "molecule": "N[C@@H](CCC(=O)N[C@@H](CS)C(=O)NCC(=O)O)C(=O)O",
    "pKa": 8.7
  },
  {
    "molecule": "Fc1ccccc1Nc1c2ccccc2nc2ccccc12",
    "pKa": 6.84
  },
  {
    "molecule": "CS(=O)(=O)O.NC(=O)Cc1ccc(Nc2c3ccccc3nc3ccccc23)cc1",
    "pKa": 7.43
  }
]

QUERY: Given the entry `O=c1ccc(-c2ccc(S(=O)(=O)Nc3cccc4c3CCCC4)s2)n[nH]1` , report its measured pKa.
RESULT: -2.5

QUERY: Quick one: `COc1cccc(S(=O)(=O)Nc2cccn(CC(=O)NCc3ccc(C(=N)N)cc3OC)c2=O)c1`
RESULT: 10

QUERY: Quick one: `NS(=O)(=O)CCc1ccc(Nc2c3ccccc3nc3ccccc23)cc1`
RESULT: 7.43

QUERY: Quick one: `Cc1ccc(NS(=O)(=O)Cc2ccccc2)c(=O)n1CC(=O)NCc1cnc(N)cn1`
RESULT: 2.7
